System: HepG2 (hepatocellular carcinoma)
assay.info: Cytotoxic activity assay (MTT)
Assay type: cell-based, human
experimental.parameters: SI = IC50 normal cell (MRC-5)/ IC50 cancer cell
Method: […] The cells were seeded into 96-well plates (100 µL for adherent cells and 75 µL for suspended cells) at a density of 5000–20,000 cells per well, depending on their growth rates. […] Following 48 h of exposure, cell viability was determined using MTT assay for adherent cells[51],[52]or XTT assay for suspeended cells. […] Afterwards, the absorbance of orange formazan at 492 nm was measured with a reference wavelength of 690 nm using a microplate reader.
result.type: Selectivity Index (SI) values HepG2

INSERT INTO assay_data (compound, result_type, value_measured) VALUES
  ('C=C1CC[C@H]2C(C)(C)CCC[C@]2(C)[C@H]1CC/C(C)=C/C(=O)N(C)OC', 'Selectivity Index (SI) values HepG2', 0.8),
  ('C=C1CC[C@H]2C(C)(C)CCC[C@]2(C)[C@H]1CC/C(C)=C/C(=O)N(C)O', 'Selectivity Index (SI) values HepG2', 1.1),
  ('C=C1CC[C@H]2C(C)(C)CCC[C@]2(C)[C@H]1CC/C(C)=C/C(=O)Nc1ccccc1', 'Selectivity Index (SI) values HepG2', 1.0),
  ('C#CCNC(=O)/C=C(\C)CC[C@H]1C(=C)CC[C@H]2C(C)(C)CCC[C@]12C', 'Selectivity Index (SI) values HepG2', 0.6),
  ('C=C1CC[C@H]2C(C)(C)CCC[C@]2(C)[C@H]1CC/C(C)=C/C(=O)NO', 'Selectivity Index (SI) values HepG2', 1.0),
  ('C=C1CC[C@H]2C(C)(C)CCC[C@]2(C)[C@H]1CC/C(C)=C/C(=O)N(C)C', 'Selectivity Index (SI) values HepG2', 0.8),
  ('C=C1CCC2C(C)(C)CCC[C@]2(C)[C@H]1CC/C(C)=C/C=O (some centres unmarked)', 'Selectivity Index (SI) values HepG2', 1.0),
  ('C=C1CC[C@H]2C(C)(C)CCC[C@]2(C)[C@H]1CC/C(C)=C/C(=O)NCc1ccccn1', 'Selectivity Index (SI) values HepG2', 1.1);

Source: paper PMC10439230
